Reported values of IC50 for individual entries
# target-or-system: EGFR L858R/C797S (Homo sapiens, UniProt P00533, C797S/L858R)
# Sequence (P00533 25-1210 C797S/L858R): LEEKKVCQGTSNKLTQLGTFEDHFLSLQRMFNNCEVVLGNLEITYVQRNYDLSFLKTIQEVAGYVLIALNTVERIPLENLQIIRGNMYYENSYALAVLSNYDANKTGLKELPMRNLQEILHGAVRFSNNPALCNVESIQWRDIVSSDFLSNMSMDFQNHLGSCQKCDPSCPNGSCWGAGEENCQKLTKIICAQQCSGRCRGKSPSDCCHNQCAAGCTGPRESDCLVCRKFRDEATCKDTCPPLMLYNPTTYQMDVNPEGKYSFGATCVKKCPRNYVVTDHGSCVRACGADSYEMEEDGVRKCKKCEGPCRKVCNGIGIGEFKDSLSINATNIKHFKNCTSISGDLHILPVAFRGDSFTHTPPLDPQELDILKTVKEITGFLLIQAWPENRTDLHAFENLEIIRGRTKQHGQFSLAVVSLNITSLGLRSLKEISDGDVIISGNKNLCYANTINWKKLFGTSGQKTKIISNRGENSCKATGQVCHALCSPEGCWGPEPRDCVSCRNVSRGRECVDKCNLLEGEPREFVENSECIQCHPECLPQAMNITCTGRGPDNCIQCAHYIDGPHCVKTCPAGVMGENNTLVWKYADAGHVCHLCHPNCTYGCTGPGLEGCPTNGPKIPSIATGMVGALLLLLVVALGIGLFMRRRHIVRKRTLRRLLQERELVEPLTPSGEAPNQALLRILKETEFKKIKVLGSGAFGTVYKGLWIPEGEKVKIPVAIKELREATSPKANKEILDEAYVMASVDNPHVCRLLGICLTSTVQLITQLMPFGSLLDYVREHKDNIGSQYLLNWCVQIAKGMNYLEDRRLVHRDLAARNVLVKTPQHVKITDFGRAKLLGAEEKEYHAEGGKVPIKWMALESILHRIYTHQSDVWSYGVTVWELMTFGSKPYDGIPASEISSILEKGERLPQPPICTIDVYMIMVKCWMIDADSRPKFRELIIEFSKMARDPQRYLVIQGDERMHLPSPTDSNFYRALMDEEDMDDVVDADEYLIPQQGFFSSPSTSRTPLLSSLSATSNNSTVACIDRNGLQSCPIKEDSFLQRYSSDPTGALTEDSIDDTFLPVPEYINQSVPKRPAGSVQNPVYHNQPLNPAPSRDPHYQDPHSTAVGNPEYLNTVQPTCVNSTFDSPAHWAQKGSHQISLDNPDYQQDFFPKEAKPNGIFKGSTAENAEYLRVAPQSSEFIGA
# assay-details: Biochemical EGFR kinase inhibition assay (Lance Ultra TR-FRET), double mutant L858R/C797S
# test-parameters: read-out: IC50 L858R/C797S (nM), 100 μM ATP
# Procedure: Biochemical EGFR kinase assays were conducted using Lance Ultra time-resolved fluorescence resonance energy transfer (TR-FRET) technology from Perkin-Elmer. […] Each kinase reactions were incubated at room temperature for 1 hour and then stopped by the addition of 4 μL of stop solution (10 mM EDTA). […] After 60 minutes incubation at room temperature the LANCE signal was measured on an EnVision Multilabel Reader (Perkin-Elmer). […]

# compound, IC50
data = [
    ("CN(C)C(=O)Cn1cc(C#Cc2cnc(Nc3ccnc(-c4cnn(S(=O)(=O)C5CC5)c4)n3)cc2N[C@H]2CC[C@@](C)(O)CC2)cn1", "33 nM"),
    ("Cn1cnc(C#Cc2cnc(Nc3ccnc(-c4cnn(S(=O)(=O)C5CC5)c4)n3)cc2N[C@H]2CC[C@@H](O)CC2)c1", "28 nM"),
    ("O=S(=O)(C1CC1)n1cc(-c2nccc(Nc3cc(N[C@H]4CC[C@@H](O)CC4)c(C#Cc4cccc(NCCN5CCOCC5)c4)cn3)n2)cn1", "100 nM"),
]

----------
# target-or-system: EGFR Del19/T790M/C797S (Homo sapiens, UniProt P00533, C797S/DEL746-750/T790M)
# Sequence (P00533 with tags, fused parts or gaps DEL746-750/T790M/C797S): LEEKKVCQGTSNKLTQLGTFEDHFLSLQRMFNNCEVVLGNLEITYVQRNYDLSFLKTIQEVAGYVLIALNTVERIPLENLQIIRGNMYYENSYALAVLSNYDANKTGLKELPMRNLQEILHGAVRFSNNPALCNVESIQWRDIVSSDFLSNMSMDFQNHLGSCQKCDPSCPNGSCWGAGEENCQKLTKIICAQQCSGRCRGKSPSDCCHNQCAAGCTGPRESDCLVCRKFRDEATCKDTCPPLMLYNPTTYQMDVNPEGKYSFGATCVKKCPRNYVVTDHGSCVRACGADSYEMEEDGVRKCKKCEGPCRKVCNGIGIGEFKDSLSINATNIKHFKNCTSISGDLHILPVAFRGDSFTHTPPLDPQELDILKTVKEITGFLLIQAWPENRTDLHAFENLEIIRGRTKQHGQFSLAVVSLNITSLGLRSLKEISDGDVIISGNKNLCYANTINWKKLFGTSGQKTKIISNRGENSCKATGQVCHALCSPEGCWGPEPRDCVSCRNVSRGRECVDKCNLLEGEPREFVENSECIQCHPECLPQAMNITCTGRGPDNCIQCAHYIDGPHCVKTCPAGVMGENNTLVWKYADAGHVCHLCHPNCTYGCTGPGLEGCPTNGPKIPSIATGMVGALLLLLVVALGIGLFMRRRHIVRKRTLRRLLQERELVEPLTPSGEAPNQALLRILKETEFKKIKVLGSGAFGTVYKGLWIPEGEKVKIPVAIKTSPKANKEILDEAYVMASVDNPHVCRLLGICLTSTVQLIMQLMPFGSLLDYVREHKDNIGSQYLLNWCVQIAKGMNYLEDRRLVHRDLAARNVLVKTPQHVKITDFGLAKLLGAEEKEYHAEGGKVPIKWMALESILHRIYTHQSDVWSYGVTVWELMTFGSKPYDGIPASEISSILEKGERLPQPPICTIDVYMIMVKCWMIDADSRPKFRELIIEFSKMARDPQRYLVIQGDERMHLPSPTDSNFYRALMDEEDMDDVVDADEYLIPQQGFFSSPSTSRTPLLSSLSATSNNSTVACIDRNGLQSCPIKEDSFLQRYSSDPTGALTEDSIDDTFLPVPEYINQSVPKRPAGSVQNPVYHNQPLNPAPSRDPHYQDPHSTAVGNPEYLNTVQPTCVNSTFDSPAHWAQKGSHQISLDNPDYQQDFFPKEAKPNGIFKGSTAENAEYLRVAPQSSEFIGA
# assay-details: Biochemical EGFR kinase inhibition assay (Lance Ultra TR-FRET), triple mutant del19/T790M/C797S
# test-parameters: IC50 Del19/T790M/C797S (nM), 100 μM ATP
Reported values of IC50 for individual entries

# molecule, IC50
records = [
    ("CNCC1(F)CCN(c2cc(Nc3ccnc(-c4cnn(S(=O)(=O)C5CC5)c4)n3)ncc2C#Cc2cnn(C)c2)CC1", "0.2 nM"),
    ("Cn1cc(C#Cc2cnc(Nc3ccnc(-c4cnn(S(=O)(=O)C5CC5)c4)n3)cc2N2CCC3(CCNCC3)C2)cn1", "1.4 nM"),
    ("O=S(=O)(C1CC1)n1cc(-c2nccc(Nc3cc(N[C@H]4CC[C@@H](O)CC4)c(C#Cc4cnn(C5CCOCC5)c4)cn3)n2)cn1", "2.1 nM"),
    ("CC1(CO)CCN(c2cc(Nc3ccnc(-c4cnn(S(=O)(=O)C5CC5)c4)n3)ncc2C#Cc2cccc(C(=O)N3CCOCC3)c2)CC1", "0.6 nM"),
    ("Cn1ncc(C#Cc2cnc(Nc3ccnc(-c4cnn(S(=O)(=O)C5CC5)c4)n3)cc2N2CCC(O)CC2)c1C1CC1", "1.4 nM"),
    ("CN(C)CCNC1CCN(c2cc(Nc3ccnc(-c4cnn(S(=O)(=O)C5CC5)c4)n3)ncc2C#Cc2cnn(C)c2)CC1", "0.3 nM"),
    ("O=S(=O)(C1CC1)n1cc(-c2nccc(Nc3cc(N4CCC(F)(CO)CC4)c(C#Cc4cnn(CC(F)(F)F)c4)cn3)n2)cn1", "0.9 nM"),
    ("CN(C)CCC1CCN(c2cc(Nc3ccnc(-c4cnn(S(=O)(=O)C5CC5)c4)n3)ncc2C#Cc2cnn(C(F)(F)F)c2)CC1", "0.4 nM"),
    ("C[C@H](CCO)Nc1cc(Nc2ccnc(-c3cnn(S(=O)(=O)C4CC4)c3)n2)ncc1C#Cc1cnn(C)c1", "1.1 nM"),
    ("C#Cc1cnc(Nc2ccnc(-c3cnn(S(=O)(=O)C4CC4)c3)n2)cc1N1CCC(C)(CO)CC1", "0.1 nM"),
    ("CC(C)(O)[C@H]1CC[C@@H](Nc2cc(Nc3ccnc(-c4cnn(S(=O)(=O)C5CC5)c4)n3)ncc2C#Cc2ccc(CN3CCOCC3)cc2)CC1", "22.9 nM"),
    ("CC1(CO)CCN(c2cc(Nc3ccnc(-c4cnn(S(=O)(=O)C5CC5)c4)n3)ncc2C#Cc2cnn(CC3CCOCC3)c2)CC1", "1.6 nM"),
    ("O=S(=O)(C1CC1)n1cc(-c2nccc(Nc3cc(N4CCN(CCO)CC4)c(C#Cc4cnn(CCF)c4)cn3)n2)cn1", "3.3 nM"),
    ("COC1CCN(c2cc(Nc3ccnc(-c4cnn(S(=O)(=O)C5CC5)c4)n3)ncc2C#Cc2cnn(C3CCN(C(C)=O)CC3)c2)CC1", "1.3 nM"),
    ("O=S(=O)(C1CC1)n1cc(-c2nccc(Nc3cc(N[C@@H]4CCC[C@H](O)C4)c(C#Cc4ccc(CN5CCOCC5)cc4)cn3)n2)cn1", "7.3 nM"),
    ("CC(C)Nc1cc(Nc2ccnc(-c3cnn(S(=O)(=O)C4CC4)c3)n2)ncc1C#Cc1cnn(CCF)c1", "2.4 nM"),
    ("CC1(CO)CCN(c2cc(Nc3ccnc(-c4cnn(S(=O)(=O)C5CC5)c4)n3)ncc2C#Cc2cnn(C(F)(F)F)c2)CC1", "3.2 nM"),
    ("CC(O)C1CCN(c2cc(Nc3ccnc(-c4cnn(S(=O)(=O)C5CC5)c4)n3)ncc2C#Cc2cnn(C)c2)CC1 (centres unmarked)", "0.9 nM"),
    ("CC1(O)CC2(CCN(c3cc(Nc4ccnc(-c5cnn(S(=O)(=O)C6CC6)c5)n4)ncc3C#Cc3cnn(C(F)(F)F)c3)CC2)C1", "4.1 nM"),
    ("CC(=O)N1CCC(n2cc(C#Cc3cnc(Nc4ccnc(-c5cnn(S(=O)(=O)C6CC6)c5)n4)cc3N3CCC(F)CC3)cn2)CC1", "1.5 nM"),
    ("O=S(=O)(C1CC1)n1cc(-c2nccc(Nc3cc(N4CCC(CO)CC4)c(C#Cc4cnn(C5CC5(F)F)c4)cn3)n2)cn1 (centres unmarked)", "1.3 nM"),
    ("Cn1cc(C#Cc2cnc(Nc3ccnc(-c4cnn(S(=O)(=O)C5CC5)c4)n3)cc2N2CCCC(F)C2)cn1 (centres unmarked)", "1.6 nM"),
    ("Cn1cc(C#Cc2cnc(Nc3ccnc(-c4cnn(S(=O)(=O)C5CC5)c4)n3)cc2N2CCC(O)C(F)(F)C2)cn1 (centres unmarked)", "1.3 nM"),
    ("CC(O)C1CCN(c2cc(Nc3ccnc(-c4cnn(S(=O)(=O)C5CC5)c4)n3)ncc2C#Cc2cnn(C(F)(F)F)c2)CC1 (centres unmarked)", "3.1 nM"),
    ("Cn1ccc(C#Cc2cnc(Nc3ccnc(-c4cnn(S(=O)(=O)C5CC5)c4)n3)cc2N2CCC(NCCF)CC2)n1", "0.9 nM"),
    ("CC1(CO)CCN(c2cc(Nc3ccnc(-c4cnn(S(=O)(=O)C5CC5)c4)n3)ncc2C#Cc2cnn3c2CN(CC(F)F)CC3)CC1", "2.6 nM"),
]
